Test system: Hepatitis C virus
PROTOCOL_SUMMARY: Antiviral activity against HCV1b infected in human HuH7 cells expressing luciferase reporter gene assessed as reduction of luciferase activity after 3 days
Type: functional, organism-based, Hepacivirus hominis
CONDITION_SUMMARY: genotype 1b, Huh-7, 72 h
METRIC_NAME: pEC50
Conceptually, pEC50 converts a concentration in mol/L into minus its log10.

Sample answers from the record:
CNC(=O)c1c(NO)cc(-c2ccccc2)oc1=O : 6.22
O=C(Nc1ccc(Cl)cc1)c1c(NO)cc(-c2ccccc2)oc1=O : 6.40
COC(=O)CNC(=O)c1c(NO)cc(-c2ccccc2)oc1=O : 5.74
COC(=O)CNC(=O)c1c(NO)cc(-c2ccc(F)cc2)oc1=O : 5.71
COc1ccc(-c2cc(NO)c(C(=O)NCc3ccccc3)c(=O)o2)cc1 : 6.24

Any idea what pEC50 came out for CNC(=O)c1c(NO)cc(-c2ccc(F)cc2)oc1=O on Hepatitis C virus?
5.76

Consider next the compound CNC(=O)c1c(-c2ccc(F)cc2)oc2cc(N(CCO)S(C)(=O)=O)c(C3CC3)cc12 in the same way.
6.46

Consider next the compound O=C(NCc1ccccc1)c1c(NO)cc(-c2ccccc2)oc1=O in the same way.
6.54

Consider next the compound Cc1ccc(NC(=O)c2c(NO)cc(-c3ccc(F)cc3)oc2=O)cc1 in the same way.
5.71

Consider next the compound O=C(NCCO)c1c(NO)cc(-c2ccc(F)cc2)oc1=O in the same way.
5.53

Consider next the compound CCC[C@H](NC(=O)[C@@H]1[C@H]2CCC[C@H]2CN1C(=O)[C@@H](NC(=O)[C@@H](NC(=O)c1cnccn1)C1CCCCC1)C(C)(C)C)C(=O)C(=O)NC1CC1 in the same way.
6.35

Consider next the compound O=C(NCc1ccccc1)c1c(NO)cc(-c2ccc(Cl)cc2)oc1=O in the same way.
6.17
